Test system: NCI-60 cell lines
Format: cell-based, human
RECORDED ENDPOINT: Cell Line (NCI-60 cell line the peptide is associated with)

// below: answered substances
The measured Cell Line (NCI-60 cell line the peptide is associated with) associated with `PPGGLKW` reads SW620-Colon

Lookup result for `PRLSWVL` ; measured Cell Line (NCI-60 cell line the peptide is associated with): HT-29 Colon

Input `RSYPLRS` . Output Cell Line (NCI-60 cell line the peptide is associated with): SW620-Colon

Noted for `GAVSVLA` : its Cell Line (NCI-60 cell line the peptide is associated with) reads SF-295 CNS

response.value for `ASLHHRR` (field: Cell Line (NCI-60 cell line the peptide is associated with)) = SW620-Colon

The reported Cell Line (NCI-60 cell line the peptide is associated with) of the substance `GRLRASL` was SF-295 CNS

Next:
For this substance ( `GSVSAGA` ), measured Cell Line (NCI-60 cell line the peptide is associated with) is HT-29 Colon

Cell Line (NCI-60 cell line the peptide is associated with) for `DTPSAVS` is SF-268 CNS

The value of Cell Line (NCI-60 cell line the peptide is associated with) measured for the substance `SGVRLTG` turned out to be HT-29 Colon

For reference, reported Cell Line (NCI-60 cell line the peptide is associated with) for `GAYGGLL` stands at SF-268 CNS

// `RIGAVWY` : Cell Line (NCI-60 cell line the peptide is associated with) value = HT-29 Colon

The value of Cell Line (NCI-60 cell line the peptide is associated with) measured for the substance `ARSSIVR` turned out to be SF-268 CNS

====

Test system: NCI-60 cell lines
Format: cell-based, human
RECORDED ENDPOINT: Cell Line with which the peptide (and its tripeptide motif) is associated

Reference set (4 entries):
// Cell Line with which the peptide (and its tripeptide motif) is associated lookup, substance = `GLVSVEA` , result: A549-Lung

The substance `WSGGLNV` showed Cell Line with which the peptide (and its tripeptide motif) is associated equal to H322-Lung

Cell Line with which the peptide (and its tripeptide motif) is associated recorded for this substance, `SGSVNRG` , is RPMI-8226-Leukemia

Cell Line with which the peptide (and its tripeptide motif) is associated for `GGSQCDT` is K-562-Leukemia

Shift focus to the following entry.
response.value for `GLVGGSS` (field: Cell Line with which the peptide (and its tripeptide motif) is associated) = H460-Lung

====

Test system: NCI-60 cell lines
Format: cell-based, human
RECORDED ENDPOINT: Cell Line with which the peptide (and its tripeptide motif) is associated

Given item `RFYHLRS` , the value recorded as its Cell Line with which the peptide (and its tripeptide motif) is associated is A549-Lung

Recorded Cell Line with which the peptide (and its tripeptide motif) is associated (substance `SYGLVLP` ): Hop-92-Lung

Lookup result for `IGGREIT` ; measured Cell Line with which the peptide (and its tripeptide motif) is associated: H23-Lung

Recorded Cell Line with which the peptide (and its tripeptide motif) is associated (substance `LASLGVG` ): H23-Lung

Per the record, `VGRLAKG` has Cell Line with which the peptide (and its tripeptide motif) is associated of Hop-62-Lung

***
Reported Cell Line with which the peptide (and its tripeptide motif) is associated for `HGRVHRL` was H23-Lung

Just so you know, measured Cell Line with which the peptide (and its tripeptide motif) is associated for `RLAVSGY` came out at H522-Lung

Per the records, this substance ( `HGLGSGT` ) has Cell Line with which the peptide (and its tripeptide motif) is associated equal to RPMI-8226-Leukemia

Noted for `GCDGGSA` : its Cell Line with which the peptide (and its tripeptide motif) is associated reads H23-Lung

Value of measured Cell Line with which the peptide (and its tripeptide motif) is associated for the entry `AGGSLGS` : H23-Lung

Notebook: `ARAMGLR` , Cell Line with which the peptide (and its tripeptide motif) is associated read as Hop-62-Lung

Entry `DRYMLRS` , Cell Line with which the peptide (and its tripeptide motif) is associated reported as H460-Lung

Lab note: `FTLRVDK` gave Cell Line with which the peptide (and its tripeptide motif) is associated of K-562-Leukemia

Quick note, Cell Line with which the peptide (and its tripeptide motif) is associated for `FVDIAGS` landed at H23-Lung

The recorded Cell Line with which the peptide (and its tripeptide motif) is associated for `GLGVSGV` is Hop-62-Lung

Sample `GVSKVRA` ; Cell Line with which the peptide (and its tripeptide motif) is associated observed: A549-Lung

Briefly, Cell Line with which the peptide (and its tripeptide motif) is associated measured for `RGVVSAK` : Hop-92-Lung

For reference, reported Cell Line with which the peptide (and its tripeptide motif) is associated for `FGGSGVL` stands at H460-Lung

Cell Line with which the peptide (and its tripeptide motif) is associated recorded for this substance, `WGAGFWM` , is H460-Lung

// Cell Line with which the peptide (and its tripeptide motif) is associated value for `GWHGPSH` : A549-Lung

Per the records, this substance ( `RGVVSGV` ) has Cell Line with which the peptide (and its tripeptide motif) is associated equal to Hop-92-Lung

So for `RREGLRS` , the logged Cell Line with which the peptide (and its tripeptide motif) is associated turned out to be H522-Lung

Record `YSQRSSL` . Reported Cell Line with which the peptide (and its tripeptide motif) is associated: Hop-62-Lung

What the record says about `CQGLVLQ` : Cell Line with which the peptide (and its tripeptide motif) is associated is K-562-Leukemia

Measured Cell Line with which the peptide (and its tripeptide motif) is associated, `GGLSPHR` : H460-Lung

Cell Line with which the peptide (and its tripeptide motif) is associated for `GAGGMAR` is RPMI-8226-Leukemia
